target: HRgpA-6H (Porphyromonas gingivalis) (UniProt P28784); assay: ELISA on coated HRgpA-6H
reported_endpoint: OD450nm

binder="KB001 mouse Fab FASEBA VH G99Y (Fab, V domains shown) VH: EVQLKQSGPGLVAPSQSLSITCTVSGFSLSIYSVHWVRQPPGKGLEWLGMIWGGGSSDYNSALKSRLSISKDNSKSQVFLKMNSLQTDDTAMYYCARNYNFYAMDYWGQGTSVTVSS VL: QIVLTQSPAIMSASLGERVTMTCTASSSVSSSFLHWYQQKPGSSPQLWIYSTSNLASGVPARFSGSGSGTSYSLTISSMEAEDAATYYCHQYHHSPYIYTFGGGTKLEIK" reported_endpoint=OD450nm endpoint_result=0.835
binder="KB001 mouse Fab FASEBA VH L63M (Fab, V domains shown) VH: EVQLKQSGPGLVAPSQSLSITCTVSGFSLSIYSVHWVRQPPGKGLEWLGMIWGGGSSDYNSAMKSRLSISKDNSKSQVFLKMNSLQTDDTAMYYCARNGNFYAMDYWGQGTSVTVSS VL: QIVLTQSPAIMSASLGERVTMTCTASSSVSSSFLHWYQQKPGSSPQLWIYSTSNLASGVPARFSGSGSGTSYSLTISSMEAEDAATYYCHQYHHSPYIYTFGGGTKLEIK" reported_endpoint=OD450nm endpoint_result=0.8
binder="KB001 mouse Fab FASEBA VH Y106N (Fab, V domains shown) VH: EVQLKQSGPGLVAPSQSLSITCTVSGFSLSIYSVHWVRQPPGKGLEWLGMIWGGGSSDYNSALKSRLSISKDNSKSQVFLKMNSLQTDDTAMYYCARNGNFYAMDNWGQGTSVTVSS VL: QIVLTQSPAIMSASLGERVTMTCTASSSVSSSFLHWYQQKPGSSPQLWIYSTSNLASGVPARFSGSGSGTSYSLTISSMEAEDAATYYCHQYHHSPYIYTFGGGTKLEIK" reported_endpoint=OD450nm endpoint_result=0.792
binder="KB001 mouse Fab FASEBA VH S28N (Fab, V domains shown) VH: EVQLKQSGPGLVAPSQSLSITCTVSGFNLSIYSVHWVRQPPGKGLEWLGMIWGGGSSDYNSALKSRLSISKDNSKSQVFLKMNSLQTDDTAMYYCARNGNFYAMDYWGQGTSVTVSS VL: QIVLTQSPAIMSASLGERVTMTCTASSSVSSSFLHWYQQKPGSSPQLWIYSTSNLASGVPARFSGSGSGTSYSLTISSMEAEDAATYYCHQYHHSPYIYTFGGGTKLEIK" reported_endpoint=OD450nm endpoint_result=0.53
binder="KB001 mouse Fab FASEBA VH Y106L (Fab, V domains shown) VH: EVQLKQSGPGLVAPSQSLSITCTVSGFSLSIYSVHWVRQPPGKGLEWLGMIWGGGSSDYNSALKSRLSISKDNSKSQVFLKMNSLQTDDTAMYYCARNGNFYAMDLWGQGTSVTVSS VL: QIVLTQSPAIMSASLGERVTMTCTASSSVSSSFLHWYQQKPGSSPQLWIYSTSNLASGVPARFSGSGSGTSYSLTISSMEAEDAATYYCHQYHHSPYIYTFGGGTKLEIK" reported_endpoint=OD450nm endpoint_result=0.791
binder="KB001 mouse Fab FASEBA VH G99S (Fab, V domains shown) VH: EVQLKQSGPGLVAPSQSLSITCTVSGFSLSIYSVHWVRQPPGKGLEWLGMIWGGGSSDYNSALKSRLSISKDNSKSQVFLKMNSLQTDDTAMYYCARNSNFYAMDYWGQGTSVTVSS VL: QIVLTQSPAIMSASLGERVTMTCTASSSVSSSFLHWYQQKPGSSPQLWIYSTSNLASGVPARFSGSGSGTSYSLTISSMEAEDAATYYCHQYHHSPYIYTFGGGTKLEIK" reported_endpoint=OD450nm endpoint_result=0.809
binder="KB001 mouse Fab FASEBA VH K64H (Fab, V domains shown) VH: EVQLKQSGPGLVAPSQSLSITCTVSGFSLSIYSVHWVRQPPGKGLEWLGMIWGGGSSDYNSALHSRLSISKDNSKSQVFLKMNSLQTDDTAMYYCARNGNFYAMDYWGQGTSVTVSS VL: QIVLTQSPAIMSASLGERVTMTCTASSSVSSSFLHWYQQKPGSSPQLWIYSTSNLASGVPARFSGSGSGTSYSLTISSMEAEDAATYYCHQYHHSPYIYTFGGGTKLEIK" reported_endpoint=OD450nm endpoint_result=0.752
binder="KB001 mouse Fab FASEBA VH G55N (Fab, V domains shown) VH: EVQLKQSGPGLVAPSQSLSITCTVSGFSLSIYSVHWVRQPPGKGLEWLGMIWGGNSSDYNSALKSRLSISKDNSKSQVFLKMNSLQTDDTAMYYCARNGNFYAMDYWGQGTSVTVSS VL: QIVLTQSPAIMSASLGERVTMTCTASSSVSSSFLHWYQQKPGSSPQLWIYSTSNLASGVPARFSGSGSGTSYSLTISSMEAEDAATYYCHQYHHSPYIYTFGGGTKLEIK" reported_endpoint=OD450nm endpoint_result=0.652
binder="KB001 mouse Fab FASEBA VH I31W (Fab, V domains shown) VH: EVQLKQSGPGLVAPSQSLSITCTVSGFSLSWYSVHWVRQPPGKGLEWLGMIWGGGSSDYNSALKSRLSISKDNSKSQVFLKMNSLQTDDTAMYYCARNGNFYAMDYWGQGTSVTVSS VL: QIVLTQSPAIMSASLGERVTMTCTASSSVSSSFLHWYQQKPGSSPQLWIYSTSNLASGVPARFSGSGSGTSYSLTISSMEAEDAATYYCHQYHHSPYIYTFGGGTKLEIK" reported_endpoint=OD450nm endpoint_result=0.459
binder="KB001 mouse Fab FASEBA VH A103S (Fab, V domains shown) VH: EVQLKQSGPGLVAPSQSLSITCTVSGFSLSIYSVHWVRQPPGKGLEWLGMIWGGGSSDYNSALKSRLSISKDNSKSQVFLKMNSLQTDDTAMYYCARNGNFYSMDYWGQGTSVTVSS VL: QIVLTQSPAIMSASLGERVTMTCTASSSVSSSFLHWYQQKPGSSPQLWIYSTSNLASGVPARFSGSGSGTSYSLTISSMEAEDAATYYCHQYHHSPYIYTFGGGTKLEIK" reported_endpoint=OD450nm endpoint_result=0.909
